molecular target: VIM-2 metallo β-lactamase (Pseudomonas aeruginosa, UniProt Q9K2N0); construct: made in house; host or cells: E. coli BL21(DE3); assay: β-lactamase enzyme inhibition, VIM-2; type: biochemical; details: Nitrocefin 100 μM, 486 nm; 15 min at 37° C. preincubation; read-out: IC50 VIM-2 (Class B)
pIC50: −log10 of the molar value.
property label: pIC50

                                   compound  experimental_result
0  O=C(CCn1cccn1)N[C@H]1Cc2cccc(C(=O)O)c2OB1O [Example 28]         5.00 to 6.00
1  O=C(CN1CCOC1=O)N[C@H]1Cc2cccc(C(=O)O)c2OB1O [Example 30]         6.00 to 7.00
2  O=C(CCN1C(=O)CCC1=O)N[C@H]1Cc2cccc(C(=O)O)c2OB1O [Example 34]         5.00 to 6.00
3  CNS(=O)(=O)CCCC(=O)N[C@H]1Cc2cccc(C(=O)O)c2OB1O [Example 58]         5.00 to 6.00
4  NS(=O)(=O)CCC(=O)N[C@H]1Cc2cccc(C(=O)O)c2OB1O [Example 35]         6.00 to 7.00
5  CC(CCC(=O)N[C@H]1Cc2cccc(C(=O)O)c2OB1O)=NO [Example 17]         5.00 to 6.00

Proceed to the following item.
Per the reported VIM-2 metallo β-lactamase (Pseudomonas aeruginosa, UniProt Q9K2N0) data, CS(=O)(=O)NCCC(=O)N[C@H]1Cc2ccc(F)c(C(=O)O)c2OB1O [Example 48] has pIC50 of 6.00 to 7.00
